Source: patent US9296734B2

Give log10 IC50 for every item shown.
# Tested on: Aβ40 in conditioned medium of cells stably expressing Amyloid Precursor Protein (APP)
# PROTOCOL NOTES: In vitro BACE cell-based assay (Aβ40 sandwich ELISA)
# MEASUREMENT CONTEXT: Homo sapiens, HEK293, read-out: HEK cell assay IC50
Form field - Quantity: IC50; Unit: nM; Scale: log10

Would you mind telling me what log10 IC50 value was observed for "C[C@@]1(c2cc(NC(=O)c3cnc(C(F)F)cn3)cc(Cl)c2F)C[C@@H](C(F)(F)F)OC(N)=N1" ?
1.67

Would you mind telling me what log10 IC50 value was observed for "COc1cc(C#N)cnc1C(=O)Nc1cc(F)c(F)c([C@]2(C)C[C@@H](C(F)(F)F)OC(N)=N2)c1" ?
0.79

Would you mind telling me what log10 IC50 value was observed for "Cc1cc(OCC(F)(F)F)cnc1C(=O)Nc1cc(C)c(F)c([C@]2(CF)C[C@@H](C(F)(F)F)OC(N)=N2)c1" ?
2.63

Would you mind telling me what log10 IC50 value was observed for "NC1=N[C@](CF)(c2cc(-c3nc4ccc(Cl)cc4o3)ccc2F)C[C@@H](C(F)(F)F)O1" ?
3.45

Would you mind telling me what log10 IC50 value was observed for "C[C@@]1(c2cc(NC(=O)c3ncc(Br)cc3Cl)cc(F)c2F)C[C@@H](C(F)(F)F)OC(N)=N1" ?
1.34
